B1: LINE1-full (parent)
chain: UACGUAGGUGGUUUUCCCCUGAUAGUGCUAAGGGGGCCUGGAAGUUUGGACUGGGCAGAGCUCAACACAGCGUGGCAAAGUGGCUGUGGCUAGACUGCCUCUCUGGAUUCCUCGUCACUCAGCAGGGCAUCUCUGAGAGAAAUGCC

- Variants of: B1
- Assay Info: self-cleavage, relative activity (ratio to wild type); higher = more cleavage; in vitro, sequencing; the parent is a self-cleaving ribozyme
So I've got a bunch of variants here, and I need their self-cleavage values.
Response field accepts a number only; no unit should be typed.

Task: Query (variant): UACGUAGGUGGUUUUCCCCUGAUAGUGCUAAGGGGGCCUGGAAGUUUGGACUGGACAGAGCUCAACACAGCGUGGCAAAGUGGCUGUGGCUAGACUGCCUCUCUGGAUUCCUCGUCACUCAGCAGGGCAUCUCCGAGAGAAAUGCC [G55A U134C] ; field requested: self-cleavage
Result: 0.23

Task: How about this variant: UACGCAGGUGGUUUUCCCCUGAUAGUGCUAAGGGUGCCUGGAAGUUUGGACUGGGCAGAGCUCAACACAGCGUGGCAAAGUGGCUGUGGCUAGACUGCCUCUCUGGAUUCCUCGUCACUCAGCAGGGCAUCUCUGAGAGAAAUGCC [U5C G35U]
Result: 1.19

Task: How about this variant: UACGUAGGUGGUUUUCCCCUGAAAGUGCUAAGGGGGCCUGGAAGUUUGGACUGGGCAGAGCUCAACACAGCGUGGCAAAGUGGCUGUGGCUAGACUGCCUCUCUUGAUUCCUCGUCACUCAGCAGGGCAUCUCUGAGAGAAAUGCC [U23A G105U]
Result: 1.36

Task: How about this variant: UACGUAGGUGGUUUUCCCCUGAUAGUGCUAAGGGGGCCUGGAAGUUUGGACUGGGCGGAGCUCAACACAGCGUGGCAAAGUGGCGGUGGCUAGACUGCCUCUCUGGAUUCCUCGUCACUCAGCAGGGCAUCUCUGAGAGAAAUGCC [A57G U85G]
Result: 0.23

Task: How about this variant: UACGUAGGUGGUUUUCCCCUGAUAGUGCUAAGGGGGCCUGGAAGUUUGGACUGGGCAGAGCUCAACACAGCGUGGCAAAGUGGCUAUGGCUAGACUGCCUCUCUGGAUUUCUCGUCACUCAGCAGGGCAUCUCUGAGAGAAAUGCC [G86A C110U]
Result: 0.09

Task: How about this variant: UACGUAGGUGGUUUUCCCCUGAUAGUGCUAAGGGGGCCUGGAAGUUUGGACUGGGCAGAGCUCAACACAGCGUGGCAAAGUGGCUGUGGCUAGGCUGCCUCUCUGGAUCCCUCGUCACUCAGCAGGGCAUCUCUGAGAGAAAUGCC [A94G U109C]
Result: 0.07

Task: How about this variant: UACGUAGGUGGUUUUCCCCUGAUAGUGCUAAGGGGGCCUGGAAGUUUGGACUGGGCAGAGCUCAACACGGCGUGGCAAAGUGGCUGUGGCUAGACUGCCUCUCUGGAUUCCUCGUCACUCAGCAGGGCAUCUCUGUGAGAAAUGCC [A69G A136U]
Result: 0.45

Task: How about this variant: UACGUAGGUGGUUUUCCCCUGAUAGUGCUAAGGGGGCCUGGAAGUUUGGACUGGGCAGCGCUCAACACAGCGAGGCAAAGUGGCUGUGGCUAGACUGCCUCUCUGGAUUCCUCGUCACUCAGCAGGGCAUCUCUGAGAGAAAUGCC [A59C U73A]
Result: 1.45

Task: How about this variant: UACGUAGGUGGUUUUCCCCUGAUAGUGCUAAGGGGGCCUGGAAGUUUGGACUGGGCAGAGCUCAACACCGAGUGGCAAAGUGGCUGUGGCUAGACUGCCUCUCUGGAUUCCUCGUCACUCAGCAGGGCAUCUCUGAGAGAAAUGCC [A69C C71A]
Result: 0.16

Task: How about this variant: UACGUAGGUGGUUUUCCCCUGAUAGUGCUAAGGGGGCCUGGAAGUUUGGACUGGGCAGAGCUCAACUCAGCGUGGCAAAGUGGCUGUGGCUAGACUGCCUCUCUGGAUUCCUCGUCACUCAGCCGGGCAUCUCUGAGAGAAAUGCC [A67U A124C]
Result: 0.17

Task: How about this variant: UCCGUAGGUGGUUUUCCCCUGAUAGUGCUAAGGGGGCCAGGAAGUUUGGACUGGGCAGAGCUCAACACAGCGUGGCAAAGUGGCUGUGGCUAGACUGCCUCUCUGGAUUCCUCGUCACUCAGCAGGGCAUCUCUGAGAGAAAUGCC [A2C U39A]
Result: 1.3

Task: How about this variant: UACGUAGGUGGUUUUCCCCUGAUAGUGCUGAGGGGGCCUGGAAGUUUGGACUGGGCAGAGCUCAACACAGCGUGGCAAAGUGGCUGUGGCUAGACUGCAUCUCUGGAUUCCUCGUCACUCAGCAGGGCAUCUCUGAGAGAAAUGCC [A30G C99A]
Result: 0.61

Task: How about this variant: UAAGUAGGUGGUUUUCCCCUGAUAGUGCUAAGGGGGCCUGGAAGUUUGGACUGGGCAGAGCUCAACGCAGCGUGGCAAAGUGGCUGUGGCUAGACUGCCUCUCUGGAUUCCUCGUCACUCAGCAGGGCAUCUCUGAGAGAAAUGCC [C3A A67G]
Result: 0.56

Task: How about this variant: CACGUAGGUGGUUUUCCCCUGAUAGUGCUAAGGGGGCCUGGAAGUUUGGACUGGGCAGAGCUCAACACAGCGUGGCAAAGUGGCUGUGGCUAGACUGCCUCUCUAGAUUCCUCGUCACUCAGCAGGGCAUCUCUGAGAGAAAUGCC [U1C G105A]
Result: 0.12

Task: How about this variant: UACGUAGGUGGUUUUCCCCUGAUAGUGCUAAGGGGGCCUGGAAGAUUGGACUGGGCAGAGCUCAGCACAGCGUGGCAAAGUGGCUGUGGCUAGACUGCCUCUCUGGAUUCCUCGUCACUCAGCAGGGCAUCUCUGAGAGAAAUGCC [U45A A65G]
Result: 0.07

Task: How about this variant: UACGUAGGUGGUUUUCCCCUGAUAGUGCUAAGGGGGCCUGGAAGUUUGGACUGGGCAGUGCUCAACACAGCGUGGCAAAGUGGCUGUGACUAGACUGCCUCUCUGGAUUCCUCGUCACUCAGCAGGGCAUCUCUGAGAGAAAUGCC [A59U G89A]
Result: 0.04

Task: How about this variant: UACGUAGGUGGUUUCCCCCUGAUAGUGCUAAGGGGGCCUGGAAGUUUGGACUGGGUAGAGCUCAACACAGCGUGGCAAAGUGGCUGUGGCUAGACUGCCUCUCUGGAUUCCUCGUCACUCAGCAGGGCAUCUCUGAGAGAAAUGCC [U15C C56U]
Result: 0.23

Task: How about this variant: UACGUAGGUGGUUUUCCCCUGAUAGUGCUAAGGGGGCCUGGAAGUUUGGACUGGGCAGGGCUCCACACAGCGUGGCAAAGUGGCUGUGGCUAGACUGCCUCUCUGGAUUCCUCGUCACUCAGCAGGGCAUCUCUGAGAGAAAUGCC [A59G A64C]
Result: 0

Task: How about this variant: UACGAAGGUGGUUCUCCCCUGAUAGUGCUAAGGGGGCCUGGAAGUUUGGACUGGGCAGAGCUCAACACAGCGUGGCAAAGUGGCUGUGGCUAGACUGCCUCUCUGGAUUCCUCGUCACUCAGCAGGGCAUCUCUGAGAGAAAUGCC [U5A U14C]
Result: 0.85

Task: How about this variant: UACGUAGGUGGUUUUCCCCUGAUAGUGCUAAGGGGGCCUGGAAGUUUGGACUGGGCAGAGCUCAAUACAGCGUGGCAAAGUGGCUGUGGCUAGACUGCCUCUCUGGAUUCCUCGUCACUCAGCAGGGCAUCUCCGAGAGAAAUGCC [C66U U134C]
Result: 0.06

Task: How about this variant: UACGUAGGUGGUUUUCCCCUGAUAGUGCUAAGGGGGCCUGGAAGUUUGGACUGGGCAGAGCUCAACACAGCGUGGCAAAGUGGCUGUGGCUUGUCUGCCUCUCUGGAUUCCUCGUCACUCAGCAGGGCAUCUCUGAGAGAAAUGCC [A92U A94U]
Result: 0.32

Task: How about this variant: UACGUAGGUGGUUUACCCCUGAUAGUGCUAAGGGGGCCUGGAAGUUUGGACUGGGCAGAGCUCAACACAGCGUGGCAAAGUGGCUGUGGCUAGACUGCCUCUCUGGAUUCCUCGUCGCUCAGCAGGGCAUCUCUGAGAGAAAUGCC [U15A A117G]
Result: 1.24
